study_target: Chromo domain-containing protein 1 (Saccharomyces cerevisiae (strain ATCC 204508 / S288c) (Baker's yeast)) (UniProt P32657)
Sequence (P32657 whole entry, the tested form may be a part): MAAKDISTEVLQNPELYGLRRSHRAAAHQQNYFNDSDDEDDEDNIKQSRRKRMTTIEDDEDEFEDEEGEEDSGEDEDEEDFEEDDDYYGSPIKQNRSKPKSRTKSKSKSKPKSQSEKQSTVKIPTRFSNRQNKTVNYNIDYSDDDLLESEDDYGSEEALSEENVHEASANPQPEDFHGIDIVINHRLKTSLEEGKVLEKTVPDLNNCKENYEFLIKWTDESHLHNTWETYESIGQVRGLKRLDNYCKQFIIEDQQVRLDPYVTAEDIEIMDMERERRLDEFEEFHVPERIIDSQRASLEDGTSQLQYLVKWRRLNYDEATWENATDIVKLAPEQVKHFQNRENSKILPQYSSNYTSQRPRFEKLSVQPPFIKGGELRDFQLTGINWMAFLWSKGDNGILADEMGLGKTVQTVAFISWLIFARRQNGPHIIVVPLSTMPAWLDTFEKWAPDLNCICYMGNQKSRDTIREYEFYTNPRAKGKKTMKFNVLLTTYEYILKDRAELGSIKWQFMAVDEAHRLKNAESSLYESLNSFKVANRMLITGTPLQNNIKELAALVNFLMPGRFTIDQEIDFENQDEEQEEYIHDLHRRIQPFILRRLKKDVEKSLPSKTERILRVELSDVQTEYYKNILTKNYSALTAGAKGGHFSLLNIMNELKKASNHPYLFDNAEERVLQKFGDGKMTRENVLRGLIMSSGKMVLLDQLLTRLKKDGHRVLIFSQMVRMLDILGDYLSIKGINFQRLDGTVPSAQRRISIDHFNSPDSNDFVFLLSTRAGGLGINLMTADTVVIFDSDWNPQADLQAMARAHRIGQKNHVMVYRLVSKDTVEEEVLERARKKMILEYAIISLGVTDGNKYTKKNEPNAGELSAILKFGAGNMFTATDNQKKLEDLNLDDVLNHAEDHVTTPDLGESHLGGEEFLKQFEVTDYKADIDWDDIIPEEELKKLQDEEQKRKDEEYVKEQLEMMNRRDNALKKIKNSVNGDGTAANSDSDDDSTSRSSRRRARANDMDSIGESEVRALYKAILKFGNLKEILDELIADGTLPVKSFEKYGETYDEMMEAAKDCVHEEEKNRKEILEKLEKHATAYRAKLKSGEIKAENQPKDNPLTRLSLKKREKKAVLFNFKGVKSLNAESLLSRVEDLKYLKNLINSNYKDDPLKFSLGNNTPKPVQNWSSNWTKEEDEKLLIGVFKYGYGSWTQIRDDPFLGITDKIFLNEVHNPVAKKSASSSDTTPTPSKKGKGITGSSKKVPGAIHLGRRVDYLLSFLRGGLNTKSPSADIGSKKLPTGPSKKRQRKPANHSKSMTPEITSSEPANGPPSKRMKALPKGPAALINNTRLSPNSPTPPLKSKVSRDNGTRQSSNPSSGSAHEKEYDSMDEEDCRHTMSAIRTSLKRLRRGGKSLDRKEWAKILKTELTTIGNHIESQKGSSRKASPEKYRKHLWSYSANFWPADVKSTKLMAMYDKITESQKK
procedure_summary: ScCHD-1 Enzyme Inhibition Assay
Type: functional
Set-up: scale not given: in the data most compounds retested in dose-response had high values
condition_label: 30 µM
As shown below, each of these compounds has a reported Percent Effect value.
All answers are understood in %, so give the number only.

compound	readout_number
CS(=O)(=O)c1snnc1C1CCN(Cc2ccncc2)CC1	5.8

So what's the measured Percent Effect for this one? CCCc1cc(=O)n(CC(N)=O)c(-n2nc(C)cc2C)n1 -9.6

So what's the measured Percent Effect for this one? COc1cc(CNCc2c(C(C)C)nn(C)c2N(C)C)ccn1 -6.52

So what's the measured Percent Effect for this one? Cc1[nH]ccc1C(=O)N1CCC(c2nnc(Cn3cccn3)n2C)CC1 1.58

So what's the measured Percent Effect for this one? O=C(COc1coc(CN2CCCCC2)cc1=O)Nc1ccc(Cl)cc1 0.832

So what's the measured Percent Effect for this one? Cc1cnc(C(=O)N(CCN(C)C)Cc2ccc(Cl)cc2)cn1 -4.76

So what's the measured Percent Effect for this one? CN(Cc1cccs1)C(=O)CN1CCCC1Cn1cncn1 (configuration not stated) -2.25

So what's the measured Percent Effect for this one? CC(C(=O)N1CCCN(c2ncccc2C#N)CC1)n1ccnc1 (configuration not stated) -9.73

So what's the measured Percent Effect for this one? Cc1ccc(-c2nnc(CN3CCOC(Cn4cccn4)C3)o2)cc1 (configuration not stated) -5.6

So what's the measured Percent Effect for this one? Cn1cc(CN2CCn3cc(CNC(=O)c4cccn4C)nc3C2)cn1 5.91

So what's the measured Percent Effect for this one? CS(=O)(=O)NCCNC(=O)C1(c2cccc(Cl)c2)CC1 -4.91

So what's the measured Percent Effect for this one? C[C@@H]1CN(C2(C(=O)N3CCOCC3)Cc3ccccc3C2)C[C@H](C)O1 -3.31

---

study_target: Arginase-2, mitochondrial (Homo sapiens)
procedure_summary: in vitro enzyme assay to detect the production of urea directly proportional to the activity of Arginase II
Type: functional
Parameters: scale not given: in the data most compounds retested in dose-response had high values
condition_label: 33.3 µM
measurement_name: Percent Effect

See these solved cases before continuing.
molecule	measurement_name	result
Cc1c[nH]cc1C(=O)N1CCN(CCc2cccs2)CC1	Percent Effect	2.05%
CC(=O)NC(C)c1ccc(OCC2CC2)c(F)c1 (configuration not stated)	Percent Effect	-9.47%
CCCc1cc(C(=O)N2CCCC(n3ccnc3C)C2)[nH]n1 (configuration not stated)	Percent Effect	3.04%

So what's the measured Percent Effect for this one? O=C1CC2(CCCNC2)C(=O)N1Cc1ccc(F)cc1 (configuration not stated) 2.28%

So what's the measured Percent Effect for this one? O=C(NC1CC1)[C@H]1CC[C@@H]2[C@@H](CCN2c2ncc(F)cn2)O1 -2.76%

So what's the measured Percent Effect for this one? CNCC(=O)N1CC(c2cc(Nc3ncccn3)nc(C)n2)C1 -1.63%

---

study_target: Chromo domain-containing protein 1 (Saccharomyces cerevisiae (strain ATCC 204508 / S288c) (Baker's yeast))
procedure_summary: ScCHD-1 Enzyme Inhibition Assay
Type: functional
Parameters: scale not given: in the data most compounds retested in dose-response had high values
condition_label: 30 µM
As shown below, each of these compounds has a reported Percent Effect value.
All answers are understood in %, so give the number only.

See these solved cases before continuing.
compound	measurement_name	display_unit	readout_number
Cc1nn(-c2ccccc2)c2c1C(c1ccc(C(=O)O)cc1)CC(=O)N2 (centres undefined)	Percent Effect	%	-14.9
O=C(Cc1c[nH]c2ccccc12)N1CCC(Nc2cccnn2)CC1	Percent Effect	%	-5.46
COCCCN1CCCN(C(C)c2nc(C3CC3)no2)CC1 (centres undefined)	Percent Effect	%	-1.39

So what's the measured Percent Effect for this one? CCOCC1CN(C(=O)c2cscn2)Cc2nnn(CC3CC3)c21 (centres undefined) -1.63

So what's the measured Percent Effect for this one? CC(C)CN1C(=O)C2(CCN(Cc3nccs3)C2)c2ccccc21 (centres undefined) -5.7

So what's the measured Percent Effect for this one? Cc1nc(CN2CCCC(CCNS(C)(=O)=O)C2)c[nH]1 (centres undefined) -0.429

So what's the measured Percent Effect for this one? Cc1cc(N2CCC(Cc3ccccc3)CC2)nc(-c2ccncc2)n1 4.27

So what's the measured Percent Effect for this one? Cc1ncc(CNC(=O)CCc2cccc(F)c2)c(C2CCCN2C)n1 (centres undefined) -19.1
